Test: photocatalytic hydrogen evolution rate (per 5 mg catalyst); higher = more photocatalytic H2 evolution; extreme values may be limits of the assay;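 further: aromatic molecules in triethylamine/methanol/water with Pt photoreduced in situ, irradiated 3 h under a 1 sun AM 1.5G solar simulator (350–1000 nm), H2 quantified by headspace gas chromatography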;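 further: listed molecule itself used as the photocatalyst at 5 mg per vial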
Settings: catalyst mass (mg): 5; Pt cocatalyst (wt%): 3; sacrificial medium: triethylamine/methanol/water 1:1:1
value type: photocatalytic hydrogen evolution rate (µmol/h)

Worked cases, photocatalytic hydrogen evolution rate given:
>>> reported("O=Cc1ccc(-c2cc(-c3ccc(C=O)cc3)c3ccc4c(-c5ccc(C=O)cc5)cc(-c5ccc(C=O)cc5)c5ccc2c3c54)cc1")
3.19
>>> reported("O=c1cccc[nH]1")
0
>>> reported("O=Cc1ccc2nsnc2c1")
0

P. c1ccc(-c2ccc(-c3nc(-c4ccc(-c5ccccc5)cc4)nc(-c4ccc(-c5ccccc5)cc4)n3)cc2)cc1
Q. O=C1Nc2c(Br)cc(Br)cc2C1=O
R. Nc1ccc(C(=O)O)cc1
S. O=C(O)c1c(F)c(F)c(C(=O)O)c(F)c1F
Task item: Put the items in order so that reported photocatalytic hydrogen evolution rate rises from first to last. Your reply should list the labels following the order given in the request.
Reply: S, R, P, Q
(S: 0 µmol/h, R: 0.059 µmol/h, P: 0.103 µmol/h, Q: 0.874 µmol/h)

A. O=Cc1ccc2c(c1)c1ccccc1n2-c1ccccc1
B. OC1(c2ccccc2)c2cc(Br)ccc2-c2ccc(Br)cc21
Task item: Out of A and B , name the one with the higher photocatalytic hydrogen evolution rate. Mark your answer with the label of the selected entry.
Reply: A
(A: 2.51 µmol/h, B: 0.101 µmol/h)
